- TEST: Level of hopanthenic acid in the cerebrum after oral administration (GC-MS)
- Assay type: in vivo, SD-male rats
- EXPERIMENTAL SETUP: rat, 389.4 umol/kg, Two hours after the administration, 389.4 µmole/kg, rats, n=4, read-out: Level of hopanthenic acid in the cerebrum (average ± S.D.)
READOUT: concentration at 2 h (ng/g)

>  <COMPOUND>
CC(C)(CO)[C@@H](O)C(=O)NCCCC(=O)O [Control]

>  <RESULT NUMBER>
700

$$$$

###

- TEST: Maximum tolerance (death observed 48 hours after administration)
- EXPERIMENTAL SETUP: mouse, in vivo; mice; dose just smaller than the dose inducing death, observed 48 hours after the administration

>  <STRUCTURE SMILES>
CC(C)C(=O)OCC(C)(C)[C@@H](O)C(=O)NCCCC(=O)O

>  <MTD at 48 h>
> 2000 mg/kg

$$$$
>  <STRUCTURE SMILES>
CC(C)CC(=O)OCC(C)(C)[C@@H](O)C(=O)NCCCC(=O)O

>  <MTD at 48 h>
> 2000 mg/kg

$$$$

###

- TEST: Level of hopanthenic acid in blood plasma after oral administration (GC-MS)
- Type: in vivo, SD-male rats
- EXPERIMENTAL SETUP: rat, 389.4 umol/kg, One hour after the administration, 389.4 µmole/kg, rats, n=4, read-out: Level of hopanthenic acid in the blood plasma (average ± S.D.)
- Procedure: SD-male rats, weighing about 200 g, 7 weeks age, having been fasted overnight (one group: 4 rats) were used. […] One or two hours after the aministration, the rats were killed by cutting whole carotid arteries, and the blood was collected. […] Concentration of hopanthenic acid in the blood plasma (0.1 ml) was measured by gas chromatography and mass spectrometry.

>  <MOLECULE>
CC(C)(CO)[C@@H](O)C(=O)NCCCC(=O)O [Control]

>  <concentration at 1 h>
19400 ng/mL

$$$$

###

- TEST: Level of hopanthenic acid in blood plasma after oral administration (GC-MS)
- Format: in vivo, SD-male rats
- EXPERIMENTAL SETUP: rat, 389.4 umol/kg, Two hours after the administration, 389.4 µmole/kg, rats, n=4, read-out: Level of hopanthenic acid in the blood plasma (average ± S.D.)

>  <COMPOUND>
CC(C)(CO)[C@@H](O)C(=O)NCCCC(=O)O [Control]

>  <concentration at 2 h>
14.2 µg/mL

$$$$
